Assay: Chemical properties of SDC-TRAP-0063
Format: physicochemical
Settings: ethanol, organic solvent or mixture; In EtOH
Assay Readout: solubility (µg/mL)

• CCc1c2c(nc3ccc(OC(=O)N4CCC(CCn5ccc6cc(-n7c(O)nnc7-c7cc(C(C)C)c(O)cc7O)ccc65)CC4)cc13)-c1cc3c(c(=O)n1C2)COC(=O)[C@]3(O)CC [SDC-TRAP-0063] = 1560

---

Test: Retention of docetaxel SDC-TRAPs in plasma and tumor (Example 53)
Assay type: in vivo, Female SCID Mouse (H1975)
Settings: female, SCID, mouse, in vivo; of analyte at 24 h; dosed SDC-TRAP-0426 25 mg/10 mL/kg IV, DRD; Table 4; read-out: Plasma Conc.
Assay Readout: concentration at 24 h

* CC(=O)O[C@@]12CO[C@@H]1C[C@H](O)[C@@]1(C)C(=O)[C@H](O)C3=C(C)[C@@H](OC(=O)[C@H](OC(=O)CCC(=O)N4CCC(N5CCC(CCn6ccc7cc(-n8c(O)nnc8-c8cc(C(C)C)c(O)cc8O)ccc76)CC5)CC4)[C@@H](NC(=O)OC(C)(C)C)c4ccccc4)C[C@@](O)([C@@H](OC(=O)c4ccccc4)[C@H]21)C3(C)C | 11.1 nM
